Target: Human HDAC2 (Homo sapiens, UniProt Q92769)
Construct: Full length with C-terminal His tag, MW=60 kDa; His (C); purchased BioMol SE-500; host or cells: baculovirus / Sf9 cells
Sequence (Q92769 whole entry): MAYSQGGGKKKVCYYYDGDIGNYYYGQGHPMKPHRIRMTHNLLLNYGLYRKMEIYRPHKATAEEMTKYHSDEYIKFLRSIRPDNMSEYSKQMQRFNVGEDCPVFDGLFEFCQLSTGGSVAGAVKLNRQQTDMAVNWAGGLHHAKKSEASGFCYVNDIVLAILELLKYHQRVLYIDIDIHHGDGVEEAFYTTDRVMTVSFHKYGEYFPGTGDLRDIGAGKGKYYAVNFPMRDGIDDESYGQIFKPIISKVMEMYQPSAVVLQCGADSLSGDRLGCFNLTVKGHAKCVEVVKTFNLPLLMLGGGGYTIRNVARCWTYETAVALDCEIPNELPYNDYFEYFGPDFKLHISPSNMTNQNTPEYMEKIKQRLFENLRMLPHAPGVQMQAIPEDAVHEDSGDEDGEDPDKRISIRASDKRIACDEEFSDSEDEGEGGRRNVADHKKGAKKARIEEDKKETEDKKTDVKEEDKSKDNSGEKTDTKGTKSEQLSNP
Assay: In vitro HDAC2 inhibition, fluorogenic peptide substrate
Type: biochemical
Conditions: No preincubation; read-out: IC50 (μM) HDAC-2
QUANTITY NAME: IC50 (µM)

Sample records with IC50:
compound="Cc1cccc(-c2ccc(N)c(NC(=O)CCCCCCNc3c4c(nc5ccccc35)CCCC4)c2)c1 [Example 17]" readout_value=188
compound="Nc1ccc(-c2ccccc2)cc1NC(=O)CCCCCCNc1c2c(nc3ccccc13)CCCC2 [Example 15]" readout_value=1.7

(a) Nc1ccc(-c2cccnc2)cc1NC(=O)CCCCCCNc1c2c(nc3ccccc13)CCCC2 [Example 21]
(b) Cc1ccc(N)c(NC(=O)CCCCCCNc2c3c(nc4ccccc24)CCCC3)c1 [Example 13]
[in] From the recorded data, which exceeds the other in IC50: a or b ? Answer by quoting the chosen item's label.
[out] b
(b: 62.9 µM, a: 3.37 µM)

* * *

Target: Human HDAC4 (Homo sapiens, UniProt P56524)
Construct: Amino acids 627-1085 with N-terminal GST tag, MW=75.2 kDa; GST (N); purchased BioMol, Hamburg, Germany; host or cells: baculovirus expression system
Sequence (P56524 627-1084 limits assumed): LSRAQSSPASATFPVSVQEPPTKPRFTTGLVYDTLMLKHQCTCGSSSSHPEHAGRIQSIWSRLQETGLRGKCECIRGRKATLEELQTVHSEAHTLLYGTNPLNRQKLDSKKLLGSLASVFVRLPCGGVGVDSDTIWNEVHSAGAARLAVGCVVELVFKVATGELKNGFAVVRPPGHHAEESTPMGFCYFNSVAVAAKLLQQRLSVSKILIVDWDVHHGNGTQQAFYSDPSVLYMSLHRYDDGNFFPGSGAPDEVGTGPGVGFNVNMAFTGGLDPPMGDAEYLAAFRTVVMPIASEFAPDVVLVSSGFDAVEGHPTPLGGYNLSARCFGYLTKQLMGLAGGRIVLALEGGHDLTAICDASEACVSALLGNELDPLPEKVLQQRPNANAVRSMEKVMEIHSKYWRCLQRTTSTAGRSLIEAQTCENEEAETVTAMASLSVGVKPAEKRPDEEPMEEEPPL
Test: In vitro HDAC4 inhibition, fluorogenic substrate
Type: biochemical
Conditions: read-out: IC50 (μM) HDAC-4
Reported IC50 values are given for each entry in this list.

Record excerpt, results attached:
compound_structure_string=COc1cccc2c(NCCCCCCC(=O)NO)c3c(nc12)CCCC3 readout_value="> 5 µM"
compound_structure_string=O=C(CCCCCCNc1c2c(nc3ccccc13)CCCC2)NO readout_value="> 5 µM"

[in] Please give the documented IC50 of O=C(CCCCCCNc1c2c(nc3ccccc13)CCC2)NO
[out] > 5 µM

[in] Item O=C(CCCCCCNc1c2c(nc3ccccc13)CCCCC2)NO : provide IC50
[out] > 5 µM

* * *

Listed below: IC50 values for each entry.
Molecular target: Human HDAC7 (Homo sapiens)
Construct: Amino acids 518-end with N-terminal GST tag, MW=78 kDa; GST (N); purchased BioMol, Hamburg, Germany; host or cells: baculovirus expression system
Sequence (Q8WUI4 518-952 limits assumed): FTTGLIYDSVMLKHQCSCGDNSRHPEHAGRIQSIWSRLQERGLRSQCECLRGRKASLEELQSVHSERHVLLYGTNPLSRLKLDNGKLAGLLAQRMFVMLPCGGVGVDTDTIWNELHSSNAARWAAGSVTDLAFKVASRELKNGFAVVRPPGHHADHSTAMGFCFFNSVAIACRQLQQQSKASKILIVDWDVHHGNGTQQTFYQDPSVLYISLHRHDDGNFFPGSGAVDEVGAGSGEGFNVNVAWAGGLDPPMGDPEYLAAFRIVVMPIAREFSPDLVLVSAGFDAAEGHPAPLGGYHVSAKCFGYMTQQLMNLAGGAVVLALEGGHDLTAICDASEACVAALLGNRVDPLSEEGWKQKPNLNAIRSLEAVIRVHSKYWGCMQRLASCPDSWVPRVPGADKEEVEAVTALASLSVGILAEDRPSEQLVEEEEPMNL
Assay: In vitro HDAC7 inhibition, fluorogenic substrate
Format: biochemical
Details: read-out: IC50 (μM) HDAC-7

compound_structure_string=O=C(CCCCCCNc1c2c(nc3ccccc13)CCC2)NO study_target="Human HDAC7 (Homo sapiens)" readout_value="> 5 µM"
compound_structure_string=O=C(CCCCCCNc1c2c(nc3ccccc13)CCCCC2)NO study_target="Human HDAC7 (Homo sapiens)" readout_value="> 5 µM"
compound_structure_string=O=C(CCCCCCNc1c2c(nc3cnccc13)CCCC2)NO study_target="Human HDAC7 (Homo sapiens)" readout_value="> 5 µM"
compound_structure_string=O=C(CCCCCCNc1c2c(nc3ncccc13)CCCC2)NO study_target="Human HDAC7 (Homo sapiens)" readout_value="> 5 µM"
compound_structure_string=O=C(CCCCCCNC(=O)c1c2c(nc3ccccc13)CCCC2)NO study_target="Human HDAC7 (Homo sapiens)" readout_value="> 5 µM"

[in] Give reported IC50 for O=C(CCCCCNC(=O)c1c2c(nc3ccccc13)CCCC2)NO (Human HDAC7 (Homo sapiens))
[out] > 5 µM

[in] System Human HDAC7 (Homo sapiens). Read-out IC50. Item O=C(CCCCCCNc1c2c(nc3ccccc13)CCCC2)NO . Report value.
[out] 0.77 µM

[in] // fetch IC50; item: O=C(CCCCCNc1c2c(nc3ccccc13)CCCC2)NO ; system: Human HDAC7 (Homo sapiens)
[out] 4.55 µM

[in] Lab note: Human HDAC7 (Homo sapiens) assay, enter IC50 for COc1cccc2c(NCCCCCCC(=O)NO)c3c(nc12)CCCC3 here
[out] > 5 µM

* * *

Target: Human HDAC2 (Homo sapiens)
Construct: Full length with C-terminal His tag, MW=60 kDa; His (C); purchased BioMol SE-500; host or cells: baculovirus / Sf9 cells
Assay: In vitro HDAC2 inhibition, fluorogenic peptide substrate
Type: biochemical
Settings: 4 h preincubation; read-out: IC50 (μM) HDAC-2
QUANTITY NAME: IC50 (µM)

Before answering, review these 3 worked examples.
molecule="CC(C)(C)c1ccc(-c2ccc(N)c(NC(=O)CCCCCCNc3c4c(nc5ccccc35)CCCC4)c2)cc1 [Example 18]" study_target="Human HDAC2 (Homo sapiens)" quantity_name=IC50 readout_value=65.9
molecule="Nc1ccc(-c2ccc3ccccc3c2)cc1NC(=O)CCCCCCNc1c2c(nc3ccccc13)CCCC2 [Example 19]" study_target="Human HDAC2 (Homo sapiens)" quantity_name=IC50 readout_value=72.7
molecule="Cc1ccc(N)c(NC(=O)CCCCCCNc2c3c(nc4ccccc24)CCCC3)c1 [Example 13]" study_target="Human HDAC2 (Homo sapiens)" quantity_name=IC50 readout_value=54.3

(A) Nc1ccc(-c2cccnc2)cc1NC(=O)CCCCCCNc1c2c(nc3ccccc13)CCCC2 [Example 21]
(B) Cc1cccc(-c2ccc(N)c(NC(=O)CCCCCCNc3c4c(nc5ccccc35)CCCC4)c2)c1 [Example 17]
(C) Nc1ccc(-c2ccccc2)cc1NC(=O)CCCCCCNc1c2c(nc3ccccc13)CCCC2 [Example 15]
[in] Sort ascending by IC50. Lab note: final answer is the ordered label list.
[out] C, A, B

* * *

Target: Human HDAC5 (Homo sapiens)
Construct: Full length with Nterminal GST tag, MW=150 kDa; GST (N); purchased BioMol, Hamburg, Germany; host or cells: baculovirus / Sf9 cells
Sequence (Q9UQL6 1-1123 isoform Q9UQL6-3): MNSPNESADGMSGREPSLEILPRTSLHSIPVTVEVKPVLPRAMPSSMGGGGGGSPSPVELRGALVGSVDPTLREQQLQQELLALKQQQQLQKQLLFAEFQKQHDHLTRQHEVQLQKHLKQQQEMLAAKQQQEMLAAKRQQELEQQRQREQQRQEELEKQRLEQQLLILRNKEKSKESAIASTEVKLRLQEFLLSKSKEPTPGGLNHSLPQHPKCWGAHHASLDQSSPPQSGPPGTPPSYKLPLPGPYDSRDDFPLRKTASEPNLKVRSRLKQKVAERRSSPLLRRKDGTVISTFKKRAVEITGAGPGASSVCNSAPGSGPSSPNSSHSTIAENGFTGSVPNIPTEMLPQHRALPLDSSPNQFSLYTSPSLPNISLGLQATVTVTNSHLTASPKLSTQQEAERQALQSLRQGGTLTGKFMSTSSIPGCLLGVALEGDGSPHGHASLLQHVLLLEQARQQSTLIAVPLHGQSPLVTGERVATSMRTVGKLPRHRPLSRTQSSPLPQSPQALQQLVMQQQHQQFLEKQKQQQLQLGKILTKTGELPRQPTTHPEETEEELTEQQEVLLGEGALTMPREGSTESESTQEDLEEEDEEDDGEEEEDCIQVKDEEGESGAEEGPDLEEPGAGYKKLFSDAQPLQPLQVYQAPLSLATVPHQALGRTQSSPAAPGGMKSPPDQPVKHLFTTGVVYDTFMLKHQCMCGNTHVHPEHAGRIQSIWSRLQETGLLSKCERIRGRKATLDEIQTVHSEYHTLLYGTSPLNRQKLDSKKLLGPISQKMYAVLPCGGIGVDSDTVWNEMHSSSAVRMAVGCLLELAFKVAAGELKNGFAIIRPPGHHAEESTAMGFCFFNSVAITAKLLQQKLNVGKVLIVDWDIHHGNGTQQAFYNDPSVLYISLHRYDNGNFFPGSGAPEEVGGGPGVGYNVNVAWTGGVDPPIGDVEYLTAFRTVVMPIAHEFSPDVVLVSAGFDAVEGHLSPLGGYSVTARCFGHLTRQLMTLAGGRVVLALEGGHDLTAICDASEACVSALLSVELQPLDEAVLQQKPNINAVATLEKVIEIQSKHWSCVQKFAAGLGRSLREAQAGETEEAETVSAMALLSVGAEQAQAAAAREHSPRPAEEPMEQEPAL
Test: In vitro HDAC5 inhibition, fluorogenic substrate
Assay type: biochemical
Details: read-out: IC50 (μM) HDAC-5
A collection of compounds and their measured IC50

Examples with answers:
compound_structure_string=O=C(CCCCCCNC(=O)c1c2c(nc3ccccc13)CCCC2)NO study_target="Human HDAC5 (Homo sapiens)" readout_value="4.24 µM"
compound_structure_string=O=C(CCCCCCNc1c2c(nc3ccccc13)CCC2)NO study_target="Human HDAC5 (Homo sapiens)" readout_value="> 5 µM"
compound_structure_string=O=C(CCCCCCNc1c2c(nc3ncccc13)CCCC2)NO study_target="Human HDAC5 (Homo sapiens)" readout_value="> 5 µM"

[in] Respond only with IC50 recorded for O=C(CCCCCCNc1c2c(nc3ccccc13)CCCCC2)NO
[out] > 5 µM

[in] Please report the measured IC50 for O=C(CCCCCNC(=O)c1c2c(nc3ccccc13)CCCC2)NO
[out] > 5 µM

* * *

Target: Human HDAC9 (Homo sapiens, UniProt Q9UKV0)
Construct: Amino acids 604-1066 with C-terminal His tag, MW=50.7 kDa; His (C); purchased BioMol, Hamburg, Germany; host or cells: baculovirus expression system
Sequence (Q9UKV0 604-1066 isoform Q9UKV0-5): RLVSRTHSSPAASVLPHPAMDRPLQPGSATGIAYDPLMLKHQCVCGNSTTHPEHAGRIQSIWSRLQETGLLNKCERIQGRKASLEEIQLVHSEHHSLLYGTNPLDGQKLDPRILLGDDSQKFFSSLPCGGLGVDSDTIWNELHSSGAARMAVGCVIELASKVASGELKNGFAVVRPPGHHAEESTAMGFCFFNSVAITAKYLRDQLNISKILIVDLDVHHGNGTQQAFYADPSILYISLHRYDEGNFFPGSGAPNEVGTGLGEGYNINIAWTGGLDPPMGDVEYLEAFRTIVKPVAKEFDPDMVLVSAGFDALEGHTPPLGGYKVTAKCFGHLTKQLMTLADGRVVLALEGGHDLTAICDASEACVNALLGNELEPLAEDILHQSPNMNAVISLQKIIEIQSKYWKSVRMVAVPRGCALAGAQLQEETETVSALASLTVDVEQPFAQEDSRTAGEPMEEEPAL
Assay: In vitro HDAC9 inhibition, fluorogenic substrate
Type: biochemical
Conditions: read-out: IC50 (μM) HDAC-9
QUANTITY NAME: IC50

compound_structure_string=O=C(CCCCCNc1c2c(nc3ccccc13)CCCC2)NO readout_value="2.47 µM"
compound_structure_string=O=C(CCCCCCNc1c2c(nc3ncccc13)CCCC2)NO readout_value="> 5 µM"
compound_structure_string=O=C(CCCCCCNc1c2c(nc3ccccc13)CCCCC2)NO readout_value="> 5 µM"

[in] Please report the measured IC50 for O=C(CCCCCCNc1c2c(nc3cnccc13)CCCC2)NO
[out] > 5 µM

[in] Write down IC50 measured for item O=C(CCCCCCNc1c2c(nc3ccccc13)CCCC2)NO
[out] 1.57 µM

[in] Report measured IC50; entry is O=C(CCCCCCNc1c2c(nc3ccccc13)CCC2)NO
[out] > 5 µM

[in] Tell me its IC50 given O=C(CCCCCCNC(=O)c1c2c(nc3ccccc13)CCCC2)NO as the entry.
[out] 3.17 µM

[in] Return IC50 for the following compound: COc1cccc2c(NCCCCCCC(=O)NO)c3c(nc12)CCCC3
[out] > 5 µM

* * *

Target: Human HDAC8 (Homo sapiens, UniProt Q9BY41)
Construct: Full length, MW=42 kDa, expressed in an E. coli expression system; purchased BioMol SE-145; host or cells: E. coli
Sequence (Q9BY41 whole entry): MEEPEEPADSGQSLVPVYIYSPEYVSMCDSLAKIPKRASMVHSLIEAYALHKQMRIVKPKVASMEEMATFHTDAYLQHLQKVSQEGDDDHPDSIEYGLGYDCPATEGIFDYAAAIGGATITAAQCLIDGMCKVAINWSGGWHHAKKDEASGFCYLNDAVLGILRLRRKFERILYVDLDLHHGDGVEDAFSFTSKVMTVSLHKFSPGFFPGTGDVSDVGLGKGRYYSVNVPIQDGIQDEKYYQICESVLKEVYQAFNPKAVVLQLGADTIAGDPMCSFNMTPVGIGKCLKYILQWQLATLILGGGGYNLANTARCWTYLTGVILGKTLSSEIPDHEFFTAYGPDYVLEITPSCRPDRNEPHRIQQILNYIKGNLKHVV
Assay: In vitro HDAC8 inhibition, fluorogenic peptide substrate
Assay type: biochemical
Details: read-out: IC50 (μM) HDAC-8
Text: In Vitro Inhibitory Activity of Histone Deacetylase: Human Isoforms HDAC1, 2, 3, 4, 5, 6, 7, 8, 9, 10 and 11 and HeLa Cell Line Nuclear Extract (IC50 Data) […]
QUANTITY NAME: IC50 (µM)

(P) O=C(CCCCCCNc1c2c(nc3cnccc13)CCCC2)NO
(Q) O=C(CCCCCNc1c2c(nc3ccccc13)CCCC2)NO
(R) O=C(CCCCCCNC(=O)c1c2c(nc3ccccc13)CCCC2)NO
[in] Falling order of IC50, please. Return the labels ranked in the requested order, please.
[out] P, Q, R
(P: 1.09 µM, Q: 0.59 µM, R: 0.21 µM)

(A) O=C(CCCCCCNc1c2c(nc3ccccc13)CCCCC2)NO
(B) O=C(CCCCCCNc1c2c(nc3ncccc13)CCCC2)NO
[in] Endpoint returns the identifier whose IC50 is numerically larger, either A or B . Please respond with the label that marks your chosen entry.
[out] B
